# system: T1, CTNI quality control recombinant protein (PK2-CTNI-1, 170120, produced by the applicant) (human, UniProt P19429 2-210, limits assumed)
# T1 construct: also called cardiac troponin I
# T1 sequence (P19429 2-210 limits assumed): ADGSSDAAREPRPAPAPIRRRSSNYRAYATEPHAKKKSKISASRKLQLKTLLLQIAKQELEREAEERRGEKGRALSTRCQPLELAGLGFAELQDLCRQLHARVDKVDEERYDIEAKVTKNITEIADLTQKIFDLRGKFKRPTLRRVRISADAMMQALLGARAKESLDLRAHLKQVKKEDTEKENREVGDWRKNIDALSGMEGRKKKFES
# test.description: AMC sensor kinetics, antibody captured, cTnI analyte
# Protocol: Using the AMC sensor, the purified antibody was diluted with PBST to 10 μg/ml, and the CTNI quality control recombinant protein (PK2-CTNI-1, 170120, produced by the applicant) was serially diluted with PBST to 400 nmol/ml, 200 nmol/ml, 100 nmol/ml, 50 nmol/ml, 25 nmol/ml, 12.5 nmol/ml, 6.25 nmol/ml, and 0 nmol/ml.
observable: Kd (nM)
One number for each entry, in nM.

{"binder": "Mutation 1-2 (antibody, V domains shown, built as for Mutation 1) VH: EVQLQQSGAELVKPGASVKLSCTASGFNIKDYFMHWMKQRTEQGLDWIGRIDPEDGETRYAPEFQGKATITADTSSNTAYLQLSTLTSEDTAVYYCARYYSSYVPFVYWGQGTLVTASA VL: DVVMTQTPLSLSVSLGDQASISCRSSQSLIYSNRHTYLHWYLQKPGQSPKLLIFQVSNRFSGVPDRFSGSGSGTDFTLKINRVEAEDLGVYFCSQSTHIPFTFGSGTKLEIKR", "output.unit": "nM", "Kd": 0.623}

Next, consider the following binder.
Incoming: Please look up its Kd: Mutation 1-46 (antibody, V domains shown, built as for Mutation 1) VH: EVQLQQSGAELVKPGASVKLSCTASGFNLKDYFMHWMKQRTEQGLDWIGRIDPEDAETRYAPEFQGKATITADTSSNTAYLQLSTLTSEDTAVYYCARYYSSYIPFVYWGQGTLVTASA VL: DVVMTQTPLSLSVSLGDQASISCRSSQSLIYSNRHTYLHWYLQKPGQSPKLLIFQISNRFSGVPDRFSGSGSGTDFTLKINRVEAEDLGVYFCSQSTHIPFTFGSGTKLEIKR
Outgoing: 0.723

Origin of measurements: patent US20210340231A1
